All figures here come from BindingDB's records for PubMed 8510008.

# Target Entity: 5-hydroxytryptamine receptor 2A (Rattus norvegicus)
Parameter Measured: Ki (nM)
Please respond with the number in nM and leave the unit unwritten.

Compound: CC(C)n1cc(CCN)c2cc(Br)ccc21
Assay Value: 3440
//
Compound: CC(O)C(C)OC(=O)[C@@H]1C[C@@H]2c3cccc4c3c(cn4C)C[C@H]2N(C)C1 (some centres undefined)
Assay Value: 9.3
//
Compound: COC1CCC(OC(=O)C2CC3c4cccc5c4c(cn5C(C)C)CC3N(C)C2)CC1 (centres undefined)
Assay Value: 10.9
//
Compound: NCCc1c[nH]c2ccc(Br)cc12
Assay Value: 3240
//
Compound: CC(C)n1cc(CCN)c2ccccc21
Assay Value: 3860

I'm curious: which Ki was measured for CN1C[C@H](C(=O)NC2CCCCC2)C[C@@H]2c3cccc4[nH]cc(c34)C[C@H]21 tested on 5-hydroxytryptamine receptor 2A (Rattus norvegicus)?
41.6

I'm curious: which Ki was measured for CN1C[C@H](C(=O)N[C@@H]2CCC[C@@H]2O)C[C@@H]2c3cccc4[nH]cc(c34)C[C@H]21 tested on 5-hydroxytryptamine receptor 2A (Rattus norvegicus)?
64.4

I'm curious: which Ki was measured for CC(C)Cn1cc2c3c(cccc31)[C@H]1C[C@@H](C(=O)OC(C)C(C)O)CN(C)[C@@H]1C2 (some centres undefined) tested on 5-hydroxytryptamine receptor 2A (Rattus norvegicus)?
242

----------
# Target Entity: 5-hydroxytryptamine receptor 2A (Rattus norvegicus, UniProt P14842)
# Sequence (P14842 whole entry): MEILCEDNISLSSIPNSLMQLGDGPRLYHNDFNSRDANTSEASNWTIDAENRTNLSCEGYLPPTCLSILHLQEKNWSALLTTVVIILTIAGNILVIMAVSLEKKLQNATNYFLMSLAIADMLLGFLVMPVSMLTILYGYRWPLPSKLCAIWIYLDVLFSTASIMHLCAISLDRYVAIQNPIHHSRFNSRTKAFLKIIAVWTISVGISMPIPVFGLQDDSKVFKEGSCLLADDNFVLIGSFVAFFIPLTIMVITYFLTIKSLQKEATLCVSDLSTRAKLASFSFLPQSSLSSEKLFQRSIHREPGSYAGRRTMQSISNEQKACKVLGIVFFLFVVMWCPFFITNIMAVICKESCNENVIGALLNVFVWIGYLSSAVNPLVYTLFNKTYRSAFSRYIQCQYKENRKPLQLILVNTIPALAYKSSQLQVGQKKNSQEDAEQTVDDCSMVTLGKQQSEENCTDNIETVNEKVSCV
Decide using Ki alone. Strictly below 50 nM: Y. Equal to or above 50 nM: N.

Reference set, count: 5
Compound: CC(C)n1cc2c3c(cccc31)C1CC(C(=O)NC3CCCC3O)CN(C)C1C2 (centres undefined)
Target Entity: 5-hydroxytryptamine receptor 2A (Rattus norvegicus, UniProt P14842)
Group: Y

Compound: CC(O)C(C)OC(=O)C1CC2c3cccc4c3c(cn4C(C)C)CC2N(C)C1 (centres undefined)
Target Entity: 5-hydroxytryptamine receptor 2A (Rattus norvegicus, UniProt P14842)
Group: Y

Compound: COC1CCC(OC(=O)[C@@H]2C[C@@H]3c4cccc5[nH]cc(c45)C[C@H]3N(C)C2)CC1 (some centres undefined)
Target Entity: 5-hydroxytryptamine receptor 2A (Rattus norvegicus, UniProt P14842)
Group: Y

Compound: Cc1ccc2c(c1)c(CCN)cn2C(C)C
Target Entity: 5-hydroxytryptamine receptor 2A (Rattus norvegicus, UniProt P14842)
Group: N

Compound: CC(O)C(C)OC(=O)C1CC2c3cccc4[nH]cc(c34)CC2N(C)C1 (centres undefined)
Target Entity: 5-hydroxytryptamine receptor 2A (Rattus norvegicus, UniProt P14842)
Group: N

Ki under 50 nM? Item: Cc1ccc2[nH]cc(CCN)c2c1
N

Ki under 50 nM? Item: CC(CO)NC(=O)C1C=C2c3cccc4[nH]cc(c34)CC2N(C)C1 (centres undefined)
Y

Ki under 50 nM? Item: COc1ccc2c(c1)c(CCN)cn2C(C)C
N

Ki under 50 nM? Item: CC(C)n1cc2c3c(cccc31)C1CC(C(=O)NC3CCCCC3)CN(C)C1C2 (centres undefined)
Y

----------
# Target Entity: 5-hydroxytryptamine receptor 2A (Sus scrofa)
# Sequence (P50129 whole entry): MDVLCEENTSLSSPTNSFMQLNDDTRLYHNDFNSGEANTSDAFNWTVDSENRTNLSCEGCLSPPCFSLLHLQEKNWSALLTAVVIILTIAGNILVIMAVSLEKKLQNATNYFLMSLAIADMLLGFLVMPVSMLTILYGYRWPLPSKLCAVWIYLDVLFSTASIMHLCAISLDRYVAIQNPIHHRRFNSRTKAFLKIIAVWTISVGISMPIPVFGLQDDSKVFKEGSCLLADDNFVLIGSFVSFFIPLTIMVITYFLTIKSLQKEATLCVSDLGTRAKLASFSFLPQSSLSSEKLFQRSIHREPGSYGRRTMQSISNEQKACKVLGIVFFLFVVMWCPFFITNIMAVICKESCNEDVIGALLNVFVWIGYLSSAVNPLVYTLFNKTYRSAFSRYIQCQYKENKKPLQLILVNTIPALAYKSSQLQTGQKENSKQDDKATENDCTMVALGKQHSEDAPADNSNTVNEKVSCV
Reported values of pKi for individual entries
Reminder that pKi is minus the log10 of a molar concentration.

// query pKi value for entry CC(CO)NC(=O)C1C=C2c3cccc4[nH]cc(c34)CC2N(C)C1 (centres undefined)
8.42
